Conditions: in n-nonanol, 318.2 K
measurement-name: solubility (mole fraction)

# query: solubility (mole fraction) of entry C[C@]12C=CC(=O)C=C1CC[C@@H]1[C@@H]2[C@@H](O)C[C@@]2(C)[C@H]1CC[C@]2(O)C(=O)CO
0.00151

---

Conditions: in NMP, 328.2 K
measurement-name: solubility (mole fraction)
Just the number.

Given C[C@]12C=CC(=O)C=C1CC[C@@H]1[C@@H]2[C@@H](O)C[C@@]2(C)[C@H]1CC[C@]2(O)C(=O)CO , state its recorded solubility (mole fraction).
0.0114

---

Settings: in n-pentanol, 293.2 K
measurement-name: solubility (mole fraction)
Write the number on its own, no unit after it.

I have this molecule here, C[C@]12C=CC(=O)C=C1CC[C@@H]1[C@@H]2[C@@H](O)C[C@@]2(C)[C@H]1CC[C@]2(O)C(=O)CO , and I need its recorded solubility (mole fraction).
0.000283

---

Details: in n-hexadecane, 303.2 K
measurement-name: solubility (mole fraction)
Just the number, please.

Can you share its solubility (mole fraction)? I mean this compound: C[C@]12C=CC(=O)C=C1CC[C@@H]1[C@@H]2[C@@H](O)C[C@@]2(C)[C@H]1CC[C@]2(O)C(=O)CO
2.61e-05

---

Conditions: in water, 323.2 K
measurement-name: solubility (mole fraction)
Just the number, please, no unit after it.

solubility (mole fraction) for C[C@]12C=CC(=O)C=C1CC[C@@H]1[C@@H]2[C@@H](O)C[C@@]2(C)[C@H]1CC[C@]2(O)C(=O)CO ?
2e-05

---

Conditions: in n-octanol, 328.2 K
measurement-name: solubility (mole fraction)
In your answer, state the number alone without any accompanying words.

# input compound: C[C@]12C=CC(=O)C=C1CC[C@@H]1[C@@H]2[C@@H](O)C[C@@]2(C)[C@H]1CC[C@]2(O)C(=O)CO ; wanted: its solubility (mole fraction)
0.0018

---

Conditions: in DMF, 323.2 K
measurement-name: solubility (mole fraction)
Enter a number only.

Return reported solubility (mole fraction); argument: C[C@]12C=CC(=O)C=C1CC[C@@H]1[C@@H]2[C@@H](O)C[C@@]2(C)[C@H]1CC[C@]2(O)C(=O)CO
0.0125

---

Conditions: in NMP, 293.2 K
measurement-name: solubility (mole fraction)
// no unit, no text: just the number

Could you tell me which solubility (mole fraction) is on file for C[C@]12C=CC(=O)C=C1CC[C@@H]1[C@@H]2[C@@H](O)C[C@@]2(C)[C@H]1CC[C@]2(O)C(=O)CO ?
0.00465

---

Conditions: in DMF, 303.2 K
measurement-name: solubility (mole fraction)

Given the molecule C[C@]12C=CC(=O)C=C1CC[C@@H]1[C@@H]2[C@@H](O)C[C@@]2(C)[C@H]1CC[C@]2(O)C(=O)CO , what is its reported solubility (mole fraction)?
0.00943

---

Details: in n-octanol, 298.2 K
measurement-name: solubility (mole fraction)
# output: bare number, no unit

What measured solubility (mole fraction) goes with C[C@]12C=CC(=O)C=C1CC[C@@H]1[C@@H]2[C@@H](O)C[C@@]2(C)[C@H]1CC[C@]2(O)C(=O)CO ?
0.000419

---

Settings: in water, 298.2 K
measurement-name: solubility (mole fraction)
Respond with the number and no other words.

Quick one: solubility (mole fraction) of C[C@]12C=CC(=O)C=C1CC[C@@H]1[C@@H]2[C@@H](O)C[C@@]2(C)[C@H]1CC[C@]2(O)C(=O)CO ?
1.1e-05

---

Conditions: in DMF, 298.2 K
measurement-name: solubility (mole fraction)
In your answer, state the number alone without any accompanying words.

Requested field: solubility (mole fraction). Item: C[C@]12C=CC(=O)C=C1CC[C@@H]1[C@@H]2[C@@H](O)C[C@@]2(C)[C@H]1CC[C@]2(O)C(=O)CO
0.00869

---

Settings: in n-pentanol, 323.2 K
measurement-name: solubility (mole fraction)
Just the number, please.

Which solubility (mole fraction) value belongs to C[C@]12C=CC(=O)C=C1CC[C@@H]1[C@@H]2[C@@H](O)C[C@@]2(C)[C@H]1CC[C@]2(O)C(=O)CO ?
0.0011

---

Conditions: in n-pentanol, 328.2 K
measurement-name: solubility (mole fraction)
// return just the number, without any unit appended

Query: solubility (mole fraction); subject: C[C@]12C=CC(=O)C=C1CC[C@@H]1[C@@H]2[C@@H](O)C[C@@]2(C)[C@H]1CC[C@]2(O)C(=O)CO
0.00139

---

Conditions: in n-nonanol, 313.2 K
measurement-name: solubility (mole fraction)

Look up solubility (mole fraction) for this compound: C[C@]12C=CC(=O)C=C1CC[C@@H]1[C@@H]2[C@@H](O)C[C@@]2(C)[C@H]1CC[C@]2(O)C(=O)CO
0.00126

---

Conditions: in n-octanol, 323.2 K
measurement-name: solubility (mole fraction)
Number only, no unit.

What value of measured solubility (mole fraction) is listed for C[C@]12C=CC(=O)C=C1CC[C@@H]1[C@@H]2[C@@H](O)C[C@@]2(C)[C@H]1CC[C@]2(O)C(=O)CO ?
0.00141

---

Settings: in n-dodecane, 308.2 K
measurement-name: solubility (mole fraction)
Lab note: jot down the number only; don't add units.

I'd like to know its solubility (mole fraction). The compound in question is C[C@]12C=CC(=O)C=C1CC[C@@H]1[C@@H]2[C@@H](O)C[C@@]2(C)[C@H]1CC[C@]2(O)C(=O)CO
2.16e-05

---

Settings: in n-octanol, 303.2 K
measurement-name: solubility (mole fraction)
# print the numeric value only

Query: solubility (mole fraction); subject: C[C@]12C=CC(=O)C=C1CC[C@@H]1[C@@H]2[C@@H](O)C[C@@]2(C)[C@H]1CC[C@]2(O)C(=O)CO
0.000568

---

Conditions: in n-nonanol, 323.2 K
measurement-name: solubility (mole fraction)
Would you mind answering with just the numeric figure?

Can you share its solubility (mole fraction)? I mean this compound: C[C@]12C=CC(=O)C=C1CC[C@@H]1[C@@H]2[C@@H](O)C[C@@]2(C)[C@H]1CC[C@]2(O)C(=O)CO
0.00179

---

Details: in n-dodecane, 323.2 K
measurement-name: solubility (mole fraction)
Response field accepts a number only; no unit should be typed.

Any idea what solubility (mole fraction) was measured for C[C@]12C=CC(=O)C=C1CC[C@@H]1[C@@H]2[C@@H](O)C[C@@]2(C)[C@H]1CC[C@]2(O)C(=O)CO ?
3.28e-05

---

Conditions: in water, 303.2 K
measurement-name: solubility (mole fraction)
Could you keep your reply to the number by itself?

What does the data say about its solubility (mole fraction)? Entry: C[C@]12C=CC(=O)C=C1CC[C@@H]1[C@@H]2[C@@H](O)C[C@@]2(C)[C@H]1CC[C@]2(O)C(=O)CO
1.25e-05

---

Settings: in n-dodecane, 298.2 K
measurement-name: solubility (mole fraction)
No unit in the answer, please; the number alone is enough.

So what's the measured solubility (mole fraction) for this one? C[C@]12C=CC(=O)C=C1CC[C@@H]1[C@@H]2[C@@H](O)C[C@@]2(C)[C@H]1CC[C@]2(O)C(=O)CO
1.64e-05

---

Settings: in DMF, 313.2 K
measurement-name: solubility (mole fraction)
Field format: numeric only.

// solubility (mole fraction) lookup, key: C[C@]12C=CC(=O)C=C1CC[C@@H]1[C@@H]2[C@@H](O)C[C@@]2(C)[C@H]1CC[C@]2(O)C(=O)CO
0.0108

---

Conditions: in NMP, 323.2 K
measurement-name: solubility (mole fraction)
In your answer, state the number alone without any accompanying words.

// lookup solubility (mole fraction) for C[C@]12C=CC(=O)C=C1CC[C@@H]1[C@@H]2[C@@H](O)C[C@@]2(C)[C@H]1CC[C@]2(O)C(=O)CO
0.00998

---

Conditions: in NMP, 308.2 K
measurement-name: solubility (mole fraction)
Enter the number alone.

For the compound shown here, C[C@]12C=CC(=O)C=C1CC[C@@H]1[C@@H]2[C@@H](O)C[C@@]2(C)[C@H]1CC[C@]2(O)C(=O)CO , give the reported solubility (mole fraction).
0.00688

---

Settings: in n-octanol, 308.2 K
measurement-name: solubility (mole fraction)
Answer with a number only.

Consider the compound shown here: C[C@]12C=CC(=O)C=C1CC[C@@H]1[C@@H]2[C@@H](O)C[C@@]2(C)[C@H]1CC[C@]2(O)C(=O)CO What is its recorded solubility (mole fraction)?
0.000712

---

Settings: in DMF, 293.2 K
measurement-name: solubility (mole fraction)
Reply briefly: the number, and no unit.

Fill in: solubility (mole fraction) of C[C@]12C=CC(=O)C=C1CC[C@@H]1[C@@H]2[C@@H](O)C[C@@]2(C)[C@H]1CC[C@]2(O)C(=O)CO is ___
0.00818

---

Details: in acetonitrile, 298.2 K
measurement-name: solubility (mole fraction)
Simply state the number, no unit and no words.

Name the recorded solubility (mole fraction) for C[C@]12C=CC(=O)C=C1CC[C@@H]1[C@@H]2[C@@H](O)C[C@@]2(C)[C@H]1CC[C@]2(O)C(=O)CO .
0.00236

Origin of measurements: BigSolDB 2.1
